# experiment description: Cmax in Sprague-Dawley rat at 10 mg/kg, po by LC-MS/MS analysis
# Assay type: ADME, organism-based
# Parameters: dose 10 mg/kg, route oral
# experimental conditions: in vivo
readout name: Cmax (ng/mL)

>>> df
                                   compound  readout_name  recorded_value
0  CC#CC(CC(=O)O)c1ccc(OCc2ccc3nc(-c4ccc(OC)cc4)cn3c2)cc1 (stereo unspecified)          Cmax           16300

* * *

# target system: Free fatty acid receptor 1 (Homo sapiens)
# Sequence (O14842 whole entry): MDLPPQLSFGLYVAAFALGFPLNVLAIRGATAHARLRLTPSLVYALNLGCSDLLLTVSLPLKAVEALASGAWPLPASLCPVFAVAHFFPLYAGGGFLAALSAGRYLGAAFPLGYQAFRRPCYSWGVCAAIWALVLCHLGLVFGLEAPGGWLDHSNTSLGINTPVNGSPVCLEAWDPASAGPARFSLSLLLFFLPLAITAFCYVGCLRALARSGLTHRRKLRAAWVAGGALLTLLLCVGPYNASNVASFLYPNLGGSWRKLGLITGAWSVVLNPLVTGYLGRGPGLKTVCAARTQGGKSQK
# experiment description: Agonist activity at GPR40 (unknown origin)
readout name: EC50 (nM)

In [3]: df
Out[3]:
                                   compound  unit_label  recorded_value
0  CC#CC(CC(=O)O)c1ccc(OCc2ccc3nc(-c4ccc(OC)cc4)cn3c2)cc1 (centres undefined)          nM              47
1  CC#CC(CC(=O)O)c1ccc(OCc2ccc3nc(-c4ccc(C)cc4)cn3c2)cc1 (centres undefined)          nM             507
2  CC#CC(CC(=O)O)c1ccc(OCc2ccn3cc(-c4ccccc4OCC)nc3c2)cc1 (centres undefined)          nM             231
3  CC#CC(CC(=O)O)c1ccc(OCc2ccc3nc(-c4ccc(C)cc4C)cn3c2)cc1 (centres undefined)          nM             316

This collection of values is drawn from ChEMBL document CHEMBL4622922.
